# System: Proteus vulgaris
# measurement protocol: Inhibition of DHPS in Proteus vulgaris assessed as antibacterial activity by measuring inhibition zone at 5 mg/mL incubated for 24 hrs by disk diffusion method
Calls of active or inactive are those of the source. The calls are words filed in the database; no cut-off is given here.
endpoint: inhibition zone (IZ)

- CC(=O)OC[C@H]1O[C@@H](S/C(Nc2ccccc2)=C(\C#N)C(=O)Nc2ccc(S(=O)(=O)Nc3onc(C)c3C)cc2)[C@H](OC(C)=O)[C@@H](OC(C)=O)[C@@H]1OC(C)=O: 8.3 mm
- CC(=O)OC[C@H]1O[C@@H](S/C(Nc2ccccc2)=C(\C#N)C(=O)Nc2ccc(S(=O)(=O)Nc3onc(C)c3C)cc2)[C@H](OC(C)=O)[C@@H](OC(C)=O)[C@H]1OC(C)=O: 11.2 mm
- Cc1noc(NS(=O)(=O)c2ccc(N)cc2)c1C: inactive
- CN/C(S)=C(/C#N)C(=O)Nc1ccc(S(=O)(=O)Nc2onc(C)c2C)cc1: 18.3 mm
- C=CCN/C(S[C@@H]1O[C@H](COC(C)=O)[C@@H](OC(C)=O)[C@H](OC(C)=O)[C@H]1OC(C)=O)=C(/C#N)C(=O)Nc1ccc(S(=O)(=O)Nc2onc(C)c2C)cc1: inactive
- C=CCN/C(SC)=C(/C#N)C(=O)Nc1ccc(S(=O)(=O)Nc2onc(C)c2C)cc1: inactive
- CCN/C(S)=C(/C#N)C(=O)Nc1ccc(S(=O)(=O)Nc2onc(C)c2C)cc1: 12.6 mm
- C=CCN/C(SCC)=C(/C#N)C(=O)Nc1ccc(S(=O)(=O)Nc2onc(C)c2C)cc1: 20.7 mm
- Cc1noc(NS(=O)(=O)c2ccc(NC(=O)c3c(N)n[nH]c3Nc3ccccc3)cc2)c1C: inactive
- Cc1noc(NS(=O)(=O)c2ccc(NC(=O)/C(C#N)=C(/S)Nc3ccccc3)cc2)c1C: inactive
- CN/C(S[C@@H]1O[C@H](COC(C)=O)[C@@H](OC(C)=O)[C@H](OC(C)=O)[C@H]1OC(C)=O)=C(/C#N)C(=O)Nc1ccc(S(=O)(=O)Nc2onc(C)c2C)cc1: 17.8 mm
- CCS/C(Nc1ccccc1)=C(\C#N)C(=O)Nc1ccc(S(=O)(=O)Nc2onc(C)c2C)cc1: inactive

Origin of measurements: ChEMBL document CHEMBL4627352
